Test: in vivo
Set-up: species or system CF-1 normal mice
Conditions: CF-1, mouse, iv, total radioactivity, Bone uptake
Measured tissue uptake at 1 h, listed per entry.
Give just the numeric value; %ID/g need not be written.

CC(C)C[C@H](NC(=O)C[C@H](O)[C@H](CC(C)C)NC(=O)[C@H](Cc1c[nH]cn1)NC(=O)CNC(=O)[C@@H](NC(=O)[C@H](C)NC(=O)[C@H](Cc1c[nH]c2ccccc12)NC(=O)[C@H](CCC(N)=O)NC(=O)[C@@H](Cc1ccccc1)NC(=O)CCCCNC(=O)[C@H](CCCCNC(=O)CN1CCN(CC(=O)O)CCN(CC(=O)O)CCN(CC(=O)O)CC1)NC(=O)CCCCCNC(=O)CC[C@H](NC(=O)N[C@@H](CCC(=O)O)C(=O)O)C(=O)O)C(C)C)C(N)=O [DUPA-6-Ahx-Lys(^111In-DOTA)-5-Ava-RM2, metal not drawn]
0.09
CC(C)C[C@H](NC(=O)C[C@H](O)[C@H](CC(C)C)NC(=O)[C@H](Cc1c[nH]cn1)NC(=O)CNC(=O)[C@@H](NC(=O)[C@H](C)NC(=O)[C@H](Cc1c[nH]c2ccccc12)NC(=O)[C@H](CCC(N)=O)NC(=O)[C@@H](Cc1ccccc1)NC(=O)c1ccc(NC(=O)[C@H](CCCCNC(=O)CN2CCN(CC(=O)O)CCN(CC(=O)O)CCN(CC(=O)O)CC2)NC(=O)CCCCCNC(=O)CC[C@H](NC(=O)N[C@@H](CCC(=O)O)C(=O)O)C(=O)O)cc1)C(C)C)C(N)=O [DUPA-6-Ahx-Lys(^111In-DOTA)-AMBA-RM2, metal not drawn]
0.06
CC(C)C[C@H](NC(=O)C[C@H](O)[C@H](CC(C)C)NC(=O)[C@H](Cc1c[nH]cn1)NC(=O)CNC(=O)[C@@H](NC(=O)[C@H](C)NC(=O)[C@H](Cc1c[nH]c2ccccc12)NC(=O)[C@H](CCC(N)=O)NC(=O)[C@@H](Cc1ccccc1)NC(=O)CCCCCNC(=O)[C@H](CCCCNC(=O)CN1CCN(CC(=O)O)CCN(CC(=O)O)CCN(CC(=O)O)CC1)NC(=O)CCCCCNC(=O)CC[C@H](NC(=O)N[C@@H](CCC(=O)O)C(=O)O)C(=O)O)C(C)C)C(N)=O [DUPA-6-Ahx-Lys(^111In-DOTA)-6-Ahx-RM2, metal not drawn]
0.08

// next entry
# get_value(readout='tissue uptake at 1 h', item= CC(C)C[C@H](NC(=O)C[C@H](O)[C@H](CC(C)C)NC(=O)[C@H](Cc1c[nH]cn1)NC(=O)CNC(=O)[C@@H](NC(=O)[C@H](C)NC(=O)[C@H](Cc1c[nH]c2ccccc12)NC(=O)[C@H](CCC(N)=O)NC(=O)[C@@H](Cc1ccccc1)NC(=O)CCCCCCCNC(=O)[C@H](CCCCNC(=O)CN1CCN(CC(=O)O)CCN(CC(=O)O)CCN(CC(=O)O)CC1)NC(=O)CCCCCNC(=O)CC[C@H](NC(=O)N[C@@H](CCC(=O)O)C(=O)O)C(=O)O)C(C)C)C(N)=O [DUPA-6-Ahx-Lys(^111In-DOTA)-8-Aoc-RM2, metal not drawn] )
0.14
